system: AKT3; conditions: concentration: 1 μM,replicates: in singlicate; n = 1;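 note: KINOMEscan kinase panel screen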
Property: %Inh; scope: individual compounds
Form entry: value (%) — number only.

Reported %Inh, compound CC(C)S(=O)(=O)N1CCN(Cc2ccc3c(c2)nc(NC(=O)c2ccsc2)n3C[C@H](O)c2ccccc2)CC1 : ____
0

CCn1c(-c2nonc2N)nc2cncc(Br)c21 ?
0

COc1cccc(CNC(=O)NC2CCN(c3ccnc(Nc4cc(OC)c(OC)c(OC)c4)n3)C2)c1 (stereo not shown) ?
0

Next:
Reported %Inh, compound Cn1ccc2ncnc(Oc3ccc(NC(=O)Nc4cccc(C(F)(F)F)c4)c(Cl)c3)c21 : ____
0

* * *

tested on: CDK3; conditions: concentration: 1 μM,replicates: in singlicate; n = 1
If the reported %Inh equals or exceeds 20%, assign condition met. If not, assign condition not met.

Is %Inh for CC(=O)Nc1nc2cnc(Nc3cc(NC(=O)c4cccc(CC(C)(C)C#N)c4)ccc3C)nc2s1 at or above 20%?
condition not met

C[C@@H]1CNc2c(sc3ccc4nc(-c5ccc(O)cc5)ccc4c23)C(=O)N1 ?
condition not met

C[C@@H](Oc1cc(-n2cnc3cc(-c4ccncc4)ccc32)sc1C(N)=O)c1ccccc1Cl ?
condition met

COc1cccc(C2=C(Nc3cccc(Cl)c3)C(=O)NC2=O)c1 ?
condition not met

COc1cc2ncn(-c3cc(OCC4CCCCC4)c(C(N)=O)s3)c2cc1OC ?
condition met

More entries:
Is %Inh for O=C1NCCc2[nH]c(-c3ccncc3)cc21 at or above 20%?
condition not met

COC(=O)Nc1nc2cc(Oc3ccc(NC(=O)Nc4cc(C(F)(F)F)ccc4Cl)cc3)ccc2[nH]1.Cl ?
condition not met

COc1cccc(OC)c1C(=O)Nc1cccc(-c2nn3ccccc3c2-c2ccnc(Nc3cccc(F)c3)n2)c1 ?
condition not met

CC(=O)Nc1ccc(-c2cc3ncnc(SCC(=O)O)c3s2)cc1 ?
condition not met

CCN1CCN(CCCC(=O)Nc2n[nH]c3nc(-c4ccc(O)cc4)c(Br)cc23)CC1 ?
condition met

CCn1c(-c2nonc2N)nc2cncc(CNC3CCNCC3)c21.Cl ?
condition not met

CC(C)S(=O)(=O)N1CCN(Cc2ccc3c(c2)nc(NC(=O)c2ccsc2)n3C[C@H](O)c2ccccc2)CC1 ?
condition met

C[C@@H]1CCN(C(=O)N2CCCC2)C[C@@H]1N(C)c1ncnc2[nH]ccc12 ?
condition not met

CCNCC(Cc1ccccc1)NC(=O)c1cc(Br)c(-c2ccnc3[nH]ccc23)s1.Cl.Cl (stereo not drawn) ?
condition not met

Cn1ccc2ncnc(Oc3ccc(NC(=O)Nc4cncc(C(F)(F)F)c4)c(Cl)c3)c21 ?
condition not met

Cn1cc(-c2cccc3c(N)c(C(N)=O)nnc23)cn1 ?
condition met

N#Cc1cccc(C(=O)NC2CCN(c3ccnc(Nc4ccc(F)cc4)n3)C2)c1 (stereo not drawn) ?
condition not met

* * *

system: ERN1; conditions: concentration: 1 μM,replicates: in singlicate; n = 1
Property: %Inh; scope: individual compounds
Param answer (str): number followed by unit.

Reported %Inh, compound COC(=O)c1cccc(NC(=O)NC2CCN(c3ccnc(Nc4cc(OC)c(OC)c(OC)c4)n3)C2)c1 (centres unmarked) : ____
4%

COc1cc2ncn(-c3cc(OCC4CCCCC4)c(C(N)=O)s3)c2cc1OC ?
8%

COc1cccc(CNC(=O)NC2CCN(c3ccnc(Nc4cc(OC)c(OC)c(OC)c4)n3)C2)c1 (centres unmarked) ?
3%

O=C(Nc1ccc(Oc2ccc3nc(NC(=O)C4CC4)cn3n2)c(F)c1)c1cccn(-c2ccccc2)c1=O ?
0%

CN1CCN(CCCNc2nccc(-c3c(-c4ccc(F)cc4)nn4cc(C(N)=O)ccc34)n2)CC1 ?
35%

More entries:
Reported %Inh, compound Cl.c1ccc(Oc2ccc(Nc3ccnc4cc(-c5ccc(CN6CCNCC6)o5)ccc34)cc2)nc1 : ____
0%

CC(C)S(=O)(=O)N1CCN(Cc2ccc3c(c2)nc(NC(=O)c2ccsc2)n3C[C@H](O)c2ccccc2)CC1 ?
4%

COc1cccc(C2=C(Nc3cccc(Cl)c3)C(=O)NC2=O)c1 ?
10%
